List of IC50 values.
# target or test system: human SGLT2 (Homo sapiens)
# Sequence (P31639 whole entry): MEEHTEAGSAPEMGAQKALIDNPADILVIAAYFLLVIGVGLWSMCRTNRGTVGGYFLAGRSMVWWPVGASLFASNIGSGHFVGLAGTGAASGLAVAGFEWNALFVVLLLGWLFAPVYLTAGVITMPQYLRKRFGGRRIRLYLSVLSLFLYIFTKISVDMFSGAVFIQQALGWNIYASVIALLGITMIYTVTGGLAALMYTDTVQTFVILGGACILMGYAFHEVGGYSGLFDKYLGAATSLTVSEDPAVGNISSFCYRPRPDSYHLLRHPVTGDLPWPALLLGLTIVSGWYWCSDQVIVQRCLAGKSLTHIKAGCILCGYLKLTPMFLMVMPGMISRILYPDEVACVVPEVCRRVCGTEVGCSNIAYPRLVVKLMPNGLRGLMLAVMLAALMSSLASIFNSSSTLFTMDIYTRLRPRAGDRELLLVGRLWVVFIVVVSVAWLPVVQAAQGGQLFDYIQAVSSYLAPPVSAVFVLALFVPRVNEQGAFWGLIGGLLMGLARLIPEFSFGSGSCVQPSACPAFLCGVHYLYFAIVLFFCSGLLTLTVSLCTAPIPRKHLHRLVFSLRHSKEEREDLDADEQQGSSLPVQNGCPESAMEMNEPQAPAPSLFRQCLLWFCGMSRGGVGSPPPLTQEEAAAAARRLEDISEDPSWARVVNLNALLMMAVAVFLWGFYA
# measurement protocol: SGLT2 assay: Na-dependent 14C-AMG uptake in CHO-K1 cells stably expressing human SGLT2
# condition info: 500 μM AMG, 2 hours at 37° C.
# output: numeric value plus its unit

CCc1cc(OCF)c([C@@H]2O[C@H](CO)[C@@H](O)[C@H](O)[C@H]2O)cc1Cc1ccc2c(c1)CC2 = 2 nM
CCOc1cc(OC)c(Cc2ccc3c(c2)CC3)cc1[C@@H]1O[C@H](CO)[C@@H](F)[C@H](O)[C@H]1O = 1 nM
OC[C@H]1O[C@@H](c2ccc(Cl)c(Cc3ccc4c(c3)CC4)c2)[C@H](O)[C@@H](O)[C@@H]1O = 1 nM

Exercise: Please give the documented IC50 of CCc1ccc([C@@H]2O[C@H](CO)[C@@H](F)[C@H](O)[C@H]2O)cc1Cc1ccc2c(c1)CC2
Solution: 8 nM

Exercise: Please give the documented IC50 of CCc1cc(OC)c([C@@H]2O[C@H](CO)[C@@H](O)[C@H](O)[C@H]2O)cc1Cc1ccc2c(c1)CC2
Solution: 1 nM

Exercise: Please give the documented IC50 of N#Cc1cc(O)c([C@@H]2O[C@H](CO)[C@@H](O)[C@H](O)[C@H]2O)cc1Cc1ccc2c(c1)CC2
Solution: 1 nM

Exercise: Please give the documented IC50 of Cc1ccc([C@@H]2O[C@H](CO)[C@@H](F)[C@H](O)[C@H]2O)cc1Cc1ccc2c(c1)CC2
Solution: 4 nM
